# Measured on: HLA-A*0201 (human)
# Measurement protocol: competition with 125I-labelled standard peptide for purified HLA, gel filtration
# Recorded conditions: scale: ratio
Property label: binding affinity ratio

> print(dat)
                                     binder          property.label  observed.measurement
1  STQKVKMHI (modifications not checked) [PSM peptide … (position 338, 9 amino acids)]  binding affinity ratio                0.0001

A: LAGTEQNFQL (modifications not checked) [… (PSM, position 83, 10 amino acids)]
B: SLFSAVKNFT (modifications not checked) [PSM peptide … (position 631, 10 amino acids)]
C: LARAASLSL (modifications not checked) [… (PAP, position 8, 9 amino acids)]
Problem: List items by binding affinity ratio in falling order. // ordering of labels required in reply
Result: B, C, A
(B: 0.001, C: 0.0002, A: 0.0001)
